system: TLR2 induced IL-6 in peripheral blood mononuclear cells (PBMCs); assay: PBMC TLR2 Induced IL-6 Assay; assay type: cell-based, human; details: Homo sapiens, PBMC, 5 h, human PBMCs, 10 μg/ml lipoteichoic acid for 5 hours, IL-6 by ELISA; value without asterisk; read-out: Cell IC50
observed_property: IC50 (µM)
Give the value, in units of µM, as a plain number.

Here are 3 compounds together with their reported answers.
compound: CC(C)Nc1cc(Nc2cnc3[nH]ccc3c2)ncc1C(=O)NC[C@@H](F)C(C)(C)O
unit_spec: µM
IC50: 0.502
//
compound: CC(C)(O)CCNC(=O)c1cnc(Nc2ccc3ncsc3c2)cc1N[C@H]1CC[C@@H](F)CC1
unit_spec: µM
IC50: 0.15
//
compound: CC(O)[C@H](F)CNC(=O)c1cnc(Nc2ccc3ncsc3c2)cc1NC1CCCC1 (stereo partly shown)
unit_spec: µM
IC50: 0.195

Query compound follows.
Lab book: IC50 of CC(C)(O)[C@H](F)CNC(=O)c1cnc(Nc2ccc3ncccc3n2)cc1NC1CC1 noted as 0.207

----------
molecular target: IRAK4 (Homo sapiens (Human), UniProt Q9NWZ3)
Sequence (Q9NWZ3 whole entry, species assumed): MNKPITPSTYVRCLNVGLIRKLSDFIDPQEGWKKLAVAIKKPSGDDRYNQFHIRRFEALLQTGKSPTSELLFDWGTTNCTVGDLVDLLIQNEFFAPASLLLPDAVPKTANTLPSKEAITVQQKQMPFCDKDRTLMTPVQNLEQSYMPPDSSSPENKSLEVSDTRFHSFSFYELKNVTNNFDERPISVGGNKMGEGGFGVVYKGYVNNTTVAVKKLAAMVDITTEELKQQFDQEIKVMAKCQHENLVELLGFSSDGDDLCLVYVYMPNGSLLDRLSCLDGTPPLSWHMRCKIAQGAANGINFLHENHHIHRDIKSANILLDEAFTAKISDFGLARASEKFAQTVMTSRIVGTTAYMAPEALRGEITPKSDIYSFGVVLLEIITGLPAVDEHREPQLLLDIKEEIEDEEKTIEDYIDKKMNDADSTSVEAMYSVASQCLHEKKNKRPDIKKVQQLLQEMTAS
observed_property: pIC50
Please keep in mind that pIC50 is minus log10 of the molar concentration; only the number is needed.

Known pIC50 results, listed for orientation:
molecule: CC(C)(O)[C@H](F)CNC(=O)c1cnc(Nc2ccc3nccnc3c2)cc1NC1CCCCCC1
observed_property: pIC50
value_reported: 8.05
--
molecule: CC(C)(O)[C@H](F)CNC(=O)c1cnc(Nc2ccc3ncsc3n2)cc1NC1CCOCC1
observed_property: pIC50
value_reported: 9.00
--
molecule: CCC(C)Nc1cc(Nc2ccn3nccc3c2)ncc1C(=O)NC[C@@H](F)C(C)(C)O (stereo partly shown)
observed_property: pIC50
value_reported: 8.25
--
molecule: CC(C)(O)[C@H](F)CNC(=O)c1cnc(Nc2ccc3ncc(C#N)cc3n2)cc1NC1CCC(F)C1 (stereo partly shown) [Example 411]
observed_property: pIC50
value_reported: 8.62
--
molecule: CC(C)(O)[C@H](F)CNC(=O)c1cnc(Nc2ccn3nccc3n2)cc1NC1CC1
observed_property: pIC50
value_reported: 8.33

Next:
Entry Cc1nn2ccc(Nc3cc(NCC(C)(C)F)c(C(=O)NC[C@@H](F)C(C)(C)O)cn3)cc2c1F , pIC50 reported as 8.36

----------
IRAK4 (Homo sapiens (Human), UniProt Q9NWZ3): reported IC50 for various compounds.
A number alone suffices; assume nM.

compound: CNC(=O)c1cnc(Nc2nc3ccc(Cl)nc3s2)cc1NC(C)C
tested_system: IRAK4 (Homo sapiens (Human), UniProt Q9NWZ3)
IC50, nM: 18.2
//
compound: CC(C)(O)[C@H](F)CNC(=O)c1cnc(Nc2ccn3nccc3n2)cc1NC1CCC(F)C1 (stereo partly shown) [Example 248]
tested_system: IRAK4 (Homo sapiens (Human), UniProt Q9NWZ3)
IC50, nM: 3.1
//
compound: Cc1cc2nc(Nc3cc(NC4CCC(F)C4)c(C(=O)NC[C@@H](F)C(C)(C)O)cn3)ccn2n1 (single isomer, unassigned)
tested_system: IRAK4 (Homo sapiens (Human), UniProt Q9NWZ3)
IC50, nM: 6.1

Could you now look at the following compound, please?
// compound CC(C)(O)[C@H](F)CNC(=O)c1cnc(Nc2nc3ccnn3cc2F)cc1NC1CC2CC2C1(F)F (stereo partly shown) , assay IRAK4 (Homo sapiens (Human), UniProt Q9NWZ3), IC50 value: 3.6
